Reference source: PubChem BioAssay (NCATS)

EXPERIMENTAL_TARGET: Atrial natriuretic peptide receptor 2 (Homo sapiens) (UniProt P20594)
Sequence (P20594 whole entry, looked up): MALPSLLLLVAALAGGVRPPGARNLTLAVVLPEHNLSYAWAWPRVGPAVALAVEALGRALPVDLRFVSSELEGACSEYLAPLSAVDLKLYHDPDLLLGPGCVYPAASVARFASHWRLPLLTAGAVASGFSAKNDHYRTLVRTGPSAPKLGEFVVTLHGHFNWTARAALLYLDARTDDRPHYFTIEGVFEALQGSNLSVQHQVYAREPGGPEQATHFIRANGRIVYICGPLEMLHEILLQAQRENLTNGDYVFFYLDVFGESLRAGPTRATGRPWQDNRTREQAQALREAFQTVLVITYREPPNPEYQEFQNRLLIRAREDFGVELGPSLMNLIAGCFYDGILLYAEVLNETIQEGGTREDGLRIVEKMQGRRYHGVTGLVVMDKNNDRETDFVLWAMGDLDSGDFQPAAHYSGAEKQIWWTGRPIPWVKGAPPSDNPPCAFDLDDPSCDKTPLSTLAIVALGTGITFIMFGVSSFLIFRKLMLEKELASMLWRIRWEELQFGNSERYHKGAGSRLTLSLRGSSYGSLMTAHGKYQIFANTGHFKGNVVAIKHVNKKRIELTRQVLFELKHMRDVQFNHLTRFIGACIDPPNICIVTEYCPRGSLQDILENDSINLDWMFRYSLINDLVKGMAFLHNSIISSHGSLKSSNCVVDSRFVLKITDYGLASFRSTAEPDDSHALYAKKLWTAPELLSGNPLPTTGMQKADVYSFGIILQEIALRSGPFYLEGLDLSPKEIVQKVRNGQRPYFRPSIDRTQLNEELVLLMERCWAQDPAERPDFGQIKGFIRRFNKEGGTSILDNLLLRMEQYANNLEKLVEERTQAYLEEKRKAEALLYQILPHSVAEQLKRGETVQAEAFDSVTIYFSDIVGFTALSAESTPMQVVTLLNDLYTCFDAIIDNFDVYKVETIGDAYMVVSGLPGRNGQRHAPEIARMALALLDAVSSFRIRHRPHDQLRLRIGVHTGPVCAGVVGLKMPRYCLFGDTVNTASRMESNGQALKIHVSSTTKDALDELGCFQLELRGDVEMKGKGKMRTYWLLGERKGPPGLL
ASSAY_EXPLANATION: Natriuretic polypeptide receptor (hNpr2) antagonism - Pilot subtype selectivity assay (AID 1347050)
CONDITION_NOTES: NPR2-expressing cells, cGMP antagonist-mode read-out; series mostly up to 38.3 µM
Results filed as inconclusive are left out. The source made the active and inactive calls. Calls follow the shape of the full dose curve.
In this exercise, the only acceptable responses are YES for active, NO for inactive

// param item: "N#C/C(=C\c1ccc(O)c(O)c1)C(=O)NCCCNC(=O)/C(C#N)=C/c1ccc(O)c(O)c1" ; yields the recorded call NO

What would you report for "C[C@@H](NCCc1ccc(O)cc1)[C@@H](O)c1ccc(O)cc1" ? NO

What would you report for CC(N)(C(=O)O)c1ccc(C(=O)O)cc1 (stereo not given) ? NO

What would you report for "C=CCN1CCc2c(cc(O)c(O)c2Br)[C@@H](c2ccccc2)C1" ? NO

What would you report for "CC(C)NC[C@H](O)COc1ccc(CC(N)=O)cc1" ? NO

What would you report for "C[C@H](O)C(=O)C1=Nc2c(nc(N)[nH]c2=O)NC1" ? NO

What would you report for "NC/C=C\C(=O)O" ? NO

What would you report for "CCCc1c(OCCCOc2ccc(OCC(=O)O)cc2)ccc(C(C)=O)c1O" ? NO

What would you report for "CCCCCCCCCCC/C=C\C(C)(C)/C=C\CCCC(=O)O" ? NO

What would you report for "CC[n+]1c(/C=C/C=C2/N(C)c3ccccc3C2(C)C)sc2ccccc21" ? YES

What would you report for "CCN1C(=O)C=CC1=O" ? NO

What would you report for "C=C1C(=O)O[C@@H]2[C@H]3O[C@]3(C)CCC=C(C)CC[C@@H]12" ? YES

What would you report for COc1cccc(OC)c1OCCNCC1CSc2ccccc2O1 (stereo not given) ? NO

What would you report for NC(C(=O)N[C@@H]1C(=O)N2C(C(=O)O)=C(Cl)CS[C@H]12)c1ccccc1 (stereo not given in full) ? NO

What would you report for "CC(C)(C)c1cc(/C=C(\C#N)C(N)=S)cc(C(C)(C)C)c1O" ? YES

What would you report for "O=C(O)Cc1c[nH]c2ccc(O)cc12" ? NO

What would you report for "COc1ccccc1N1CCN(CCCCN2C(=O)c3ccccc3C2=O)CC1" ? NO

What would you report for CC(C)NCC(O)COc1ccc(CC(N)=O)cc1 (stereo not given) ? NO

What would you report for "CCCCCCC/C=C\CCCCCCCCC(=O)O" ? NO

What would you report for "CC[C@H](NC(=O)c1c(C)c(-c2ccccc2)nc2ccccc12)c1ccccc1" ? NO

What would you report for CC(C)(C)NCC(O)COc1cccc2[nH]c(=O)[nH]c12 (stereo not given) ? NO

What would you report for "NC(N)=[N+]1CCc2ccccc2C1" ? NO

What would you report for "Cn1c(=O)c2[nH]c(C3CCCC3)nc2n(C)c1=O" ? NO

What would you report for CC1CCN=C(N)S1 (stereo not given) ? NO

What would you report for "COc1ccccc1N1CCN(CCN(C(=O)c2ccc(F)cc2)c2ccccn2)CC1" ? NO

* * *

ASSAY_EXPLANATION: qHTS for differential inhibitors of proliferation of Plasmodium falciparum line 3D7 (AID 1876)
CONDITION_NOTES: P. falciparum 3D7 proliferation inhibition; series mostly up to 28.7 µM
Inconclusive results are not listed. Active and inactive are the calls of the source. Calls come from the whole dose curve; as a rule, active = well fitted curve in the direction sought with a large enough effect; inconclusive = small, poorly fitted or top-dose-only effect, or another doubt; inactive = no such curve, though single readings can be large or run the other way.
In this exercise, the only acceptable responses are active, inactive

// param item: "N[C@@H](Cc1ccc(O)c(I)c1)C(=O)O" ; yields the recorded call inactive

What would you report for CC(C)NCC(O)COc1ccc(CC(N)=O)cc1 (centres undefined) ? inactive

What would you report for "C=CCn1c(=O)c2c(nc(-c3ccc(S(=O)(=O)O)cc3)n2C)n(C)c1=O" ? inactive

What would you report for NC1CONC1=O (centres undefined) ? inactive

What would you report for "Cn1c(=O)[nH]c2ncn(C)c2c1=O" ? inactive

What would you report for "O=C(O)Cc1ccc(O)c(O)c1" ? inactive

What would you report for O=C(O)CCC(=O)N1CCCC1C(=O)O (centres undefined) ? inactive

What would you report for CC1C(=O)N(C)C(=O)c2nc[nH]c21 (centres undefined) ? inactive

What would you report for C=C(C)C1CC=C(C(=O)O)CC1 (centres undefined) ? inactive

What would you report for "COc1ccc(C(=O)NCc2cccnc2)cc1C(=O)NCc1cccnc1" ? inactive

What would you report for "O=c1onc2n1-c1cc(Br)ccc1OC2" ? inactive

What would you report for C#CC(N)CCC(=O)O (centres undefined) ? inactive

What would you report for "COCc1nc2c([nH]1)c(=O)n(C)c(=O)n2CC(C)C" ? inactive

What would you report for "O=c1[nH]c2ccccc2c2ccccc12" ? inactive

What would you report for "N=C(N)c1ccc(N)cc1" ? inactive

What would you report for NCCC1CCCC(CCN)N1 (centres undefined) ? inactive

What would you report for OCC1NCC(O)C(O)C1O (centres undefined) ? inactive

What would you report for "CC(C)(C)c1cc(/C=C(\C#N)C(N)=S)cc(C(C)(C)C)c1O" ? active

What would you report for "OC[C@H]1O[C@@H](n2cnc3cncnc32)[C@H](O)[C@@H]1O" ? active

What would you report for COc1cc(C(O)CO)ccc1O (centres undefined) ? inactive

What would you report for "COc1cc(N)c(Cl)cc1C(=O)OCCN1CCCCC1" ? inactive

What would you report for "C[C@@H](NCCc1ccc(O)cc1)[C@@H](O)c1ccc(O)cc1" ? inactive

What would you report for "CCCc1c(-c2ccc(O)cc2)nn(-c2ccc(O)cc2)c1-c1ccc(O)cc1" ? inactive

What would you report for "O=[N+]([O-])c1cccc2cn[nH]c12" ? inactive

What would you report for "NC/C=C\C(=O)O" ? inactive

What would you report for "N#C/C(=C\c1ccc(O)c(O)c1)C(=O)NCCc1ccccc1" ? active

What would you report for C=CCN1CCc2c(cc(O)c(O)c2Cl)C(c2ccccc2)C1 (centres undefined) ? active

What would you report for COc1ccc2c(c1)CCC1C2CC[C@@]2(C)C1CC[C@@H]2NCCCCCCN1C(=O)C=CC1=O (some centres undefined) ? inactive

What would you report for CC1=C(C(=O)O)N2C(=O)[C@@H](NC(=O)C(N)C3=CCC=CC3)[C@H]2SC1 (some centres undefined) ? inactive

What would you report for "CN(C)C(=O)/N=N/C(=O)N(C)C" ? inactive

What would you report for CC(C)C[C@H](NC(=O)C1OC1C(=O)O)C(=O)NCCCCN=C(N)N (some centres undefined) ? active

What would you report for "Cc1ccc([N+](=O)[O-])cc1S(=O)(=O)N(C)C" ? inactive

What would you report for NC(Cc1cccc(-c2ccccc2CP(=O)(O)O)c1)C(=O)O (centres undefined) ? inactive

What would you report for "CN[C@H](CC(=O)O)C(=O)O" ? inactive

What would you report for "CNCCNS(=O)(=O)c1cccc2cnccc12" ? inactive

What would you report for "O=C(O)C1=CCCNC1" ? inactive

What would you report for O=C(O)C1CN(CCCP(=O)(O)O)CCN1 (centres undefined) ? inactive

What would you report for "CN(C)S(=O)(=O)c1ccc2c(c1)/C(=C/c1cc3c([nH]1)CCCC3)C(=O)N2" ? active

What would you report for "CCN1C(=O)C=CC1=O" ? inactive

What would you report for "O=C(O)c1ccccc1Nc1ccccc1" ? inactive

What would you report for "O=C(O)C1=CCNCC1" ? inactive

What would you report for Cc1cccc(C2CN(C)CCc3c2cc(O)c(O)c3Cl)c1 (centres undefined) ? active

What would you report for NCC(O)C1CCCCCCC1 (centres undefined) ? inactive

What would you report for "Cc1cc2c(cc1Cl)N(C(=O)Nc1ccnc3ccccc13)CC2" ? inactive

What would you report for "c1ccc2nc(C3=NCCN3)ccc2c1" ? inactive

What would you report for "C[C@@]1(C2CCCC2)Cc2cc(OCC(=O)O)c(Cl)c(Cl)c2C1=O" ? inactive

What would you report for "N[C@@H](CCC(=O)N[C@H](CSN=O)C(=O)NCC(=O)O)C(=O)O" ? inactive

What would you report for "C[C@H](NC(=O)/C(C#N)=C/c1ccc(O)c(O)c1)c1ccccc1" ? active

What would you report for "Cn1ccnc1" ? inactive

What would you report for "Nc1ccc(-c2nc3ccc(-c4nc5ccc(N)cc5[nH]4)cc3[nH]2)cc1" ? active

What would you report for Nc1ncnc2c1ncn2C1CCCO1 (centres undefined) ? inactive

What would you report for "N[C@H](C(=O)O)[C@H]1C[C@@H]1C(=O)O" ? inactive

What would you report for "O=C(O)c1cccnc1C(=O)O" ? inactive

What would you report for "CC[N+](CC)(CC)CC(=O)Nc1c(C)cccc1C" ? inactive
